Target system: human PD-L1/His fusion protein (human, UniProt Q9NZQ7 19-239)
Sequence (Q9NZQ7 19-239 limits assumed): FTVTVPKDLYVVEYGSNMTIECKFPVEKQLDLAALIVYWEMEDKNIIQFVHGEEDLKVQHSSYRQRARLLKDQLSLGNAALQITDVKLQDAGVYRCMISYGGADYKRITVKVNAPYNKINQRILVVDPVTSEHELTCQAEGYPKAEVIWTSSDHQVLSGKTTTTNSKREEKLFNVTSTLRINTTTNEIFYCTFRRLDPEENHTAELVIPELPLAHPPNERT
Protocol details: BLI Octet RED96, antibody on AHC sensor, single conc. PD-L1/His; test group 1
Reported koff by item:
Provide a numeric answer, followed by its unit.

| Binder | Recorded result |
| --- | --- |
| HuEM0005-87-6 (antibody, human IgG1, V domains shown) VH: EVQLVQSGAEVKKPGASVKVSCKASGYTFTDYYINWVRQAPGQGLEWMGETIPNTGGTTYNQKFKARVTMTVDTSTSTVYMELSSLRSEDTAVYYCARYQSGSPFAYWGQGTTVTVSS VL: EIVMTQSPATLSVSPGERATLSCKASQNVGTAVAWYQQKPGQAPRLLIYSASNRYTGIPARFSGSGSGTEFTLTISSLQSEDFAVYYCQQHYSTPYTFGGGTKLEIK | 0.000998 s⁻¹ |
| HuEM0005-90-2 (antibody, human IgG1, V domains shown) VH: EVQLVQSGAEVKKPGASVKVSCKASGYTFTSHSINWVRQATGQGLEWIGYMYIGNGYTEYNEKFKGRATLTSNTSISTAYMELSSLRSEDTAVYYCAKITPVVAPYVMDYWGQGTSVTVSS VL: DIQLTQSPSFLSASVGDRVTITCKASQDVGTAVAWYQQKPGKAPKLLIYWASTRHTGVPSRFSGSGSGTEFTLTISSLQPEDFATYYCQQYSSYPYTFGQGTKLEIK | 0.000227 s⁻¹ |
| HuEM0005-87-5 (antibody, human IgG1, V domains shown) VH: EVQLVQSGAEVKKPGASVKVSCKASGYSFTDYYINWVKQAPGQGLEWIGETIPNTGGTTYNQKFKAKATLTRDKSTSTAYMELKSLRSEDTAVYYCARYQSGSPFAYWGQGTTVTVSS VL: DIVMTQSPDSLAVSLGERATINCKASQNVGTAVAWYQQKPGQPPKLLIYSASNRYTGVPDRFTGSGSGTDFTLTISSLQAEDVAVYYCQQHYSTPYTFGGGTKLEIK | 0.000947 s⁻¹ |
| EM0005-mAb90c (antibody, human IgG1, kappa, V domains shown, Chimeric full-length IgG1; also called EM0005-90c) VH: QVQLKQSGAELVRPGSSVKMSCKTSGYTFTSHSINWVKQRPGQGLEWIGYMYIGNGYTEYNEKFKGKATLTSDTSSTTAYMQLSSLTSEDSAIYFCAKITPVVAPYVMDYWGQGTSVTVSS VL: DIVMTQTHKFMSTSVGDRVSITCKASQDVGTAVAWYQQKPGQSPKLLIYWASTRHTGVPDRFTGSGSGTDFTLTISNVQSEDLADYFCQQYSSYPYTFGGGTKLELKR | 0.000253 s⁻¹ |

Here is the next item to consider.
Ask: Quick one: give measured koff for HuEM0005-90-3 (antibody, human IgG1, V domains shown) VH: EVQLVQSGAEVKKPGASVKVSCKTSGYTFTSHSINWVRQATGQGLEWMGYMYIGNGYTEYNEKFKGRVTMTSNTSISTAYMELSSLRSEDTAVYYCAKITPVVAPYVMDYWGQGTSVTVSS VL: DIQLTQSPSFLSASVGDRVTITCKASQDVGTAVAWYQQKPGKAPKLLIYWASTRHTGVPSRFSGSGSGTEFTLTISSLQPEDFATYYCQQYSSYPYTFGQGTKLEIK
Result: 0.000304 s⁻¹

Values compiled from patent US20230242675A1.
